Reference source for all entries: paper PMC3765866

Biological target: PTPRQ (Homo sapiens, UniProt Q9UMZ3)
Construct: The catalytic domain of PTPRQ (PTPRQ-C, residues 2661–2948) was subcloned into pET28a; His tag; made in house; host or cells: Escherichia coli BL21 (DE3)
Sequence (Q9UMZ3 2015-2302 limits assumed): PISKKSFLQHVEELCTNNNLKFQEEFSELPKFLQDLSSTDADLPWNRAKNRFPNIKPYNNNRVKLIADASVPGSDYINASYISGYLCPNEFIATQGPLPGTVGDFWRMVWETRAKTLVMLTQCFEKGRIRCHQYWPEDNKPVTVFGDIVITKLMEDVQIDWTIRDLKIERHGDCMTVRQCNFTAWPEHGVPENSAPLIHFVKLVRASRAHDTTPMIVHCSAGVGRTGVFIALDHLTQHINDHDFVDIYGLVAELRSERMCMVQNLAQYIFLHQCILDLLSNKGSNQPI
Test: PTPRQ enzyme inhibition assay monitoring hydrolysis of pNPP
Format: biochemical
Conditions: inhibitor 100 μM, duplicates
measurementKind: inhibition at 100 µM (%)
One number for each entry, in %.

1) O=C(O)CCN1C(=O)/C(=C\c2cccc(Oc3ccccc3)c2)SC1=S
62.5
2) CN1C(=O)/C(=C/c2ccc(OCc3cccc([N+](=O)[O-])c3)cc2)S/C1=N/c1cccc(C(=O)O)c1
50.9
3) COC(=O)c1cccc(-c2ccc(/C=C3\C(=O)N(c4cccc(C(=O)O)c4)N=C3C)o2)c1
57
4) CCOC(=O)Cn1cc(/C=C2/C(=O)NC(=O)N(c3cc(C)cc(C)c3)C2=O)c2ccccc21
71.1
5) O=C1NC(=S)S/C1=C\c1cn(-c2ccccc2)nc1-c1ccccc1
57.7

Consider the additional compound presented here.
The reported value for COc1cccc(-c2nn(-c3ccccc3)cc2/C=C2\SC(=S)N(CCC(=O)O)C2=O)c1 in terms of inhibition at 100 µM is 82.6
